- Read-out: Human Leukocyte Antigen - DR isotype (HLADR), HLA-DRA (gene 3122)
- ASSAY_METHOD_TEXT: BSK_3C_HLADR: BioMAP Diversity Plus: 3C Assay for Human Leukocyte Antigen - DR isotype (HLADR) Biomarker Activity (AID 2283019)
- SETUP_CONDITIONS: primary human endothelial cells (HUVEC); actives raise or lower the signal
Active and inactive are the calls of the source. The calls were made as follows: active = hit-call score of the fitted dose curve at least 0.9, where 1 is the maximum; inactive = score below 0.9.
Respond using exactly one of the listed classes: label 1 = active, label 0 = inactive

Field: example entries. Status: answers known.
{"MOLECULE": "c1ccc(-c2ccccc2)cc1", "CLASS_LABEL": "label 0"}
{"MOLECULE": "CCSC(=O)N(CC)C1CCCCC1", "CLASS_LABEL": "label 0"}
{"MOLECULE": "C[C@]12CCC(=O)C=C1CC[C@@H]1[C@@H]2CC[C@]2(C)C(=O)CC[C@@H]12", "CLASS_LABEL": "label 0"}
{"MOLECULE": "COc1ccc(O)c(C(C)(C)C)c1", "CLASS_LABEL": "label 0"}
{"MOLECULE": "Oc1ccc(Cl)cc1Cl", "CLASS_LABEL": "label 0"}

State the result this test recorded for CCOC(=O)C(O)(c1ccc(Cl)cc1)c1ccc(Cl)cc1 . label 1

State the result this test recorded for CCOCCOC(C)=O . label 0

State the result this test recorded for Clc1ccc(Cl)cc1 . label 0

State the result this test recorded for ClC1=C(Cl)[C@]2(Cl)[C@@H]3[C@@H](Cl)[C@H]4O[C@H]4[C@@H]3C1(Cl)C2(Cl)Cl . label 1

* * *

- ASSAY_METHOD_TEXT: IUF_NPC2b_neuronal_migration_120hr: Leibniz Research Institute for Environmental Medicine (IUF) 120-hour Neural Progenitor Cell Migration Assay for Neuron Migration (NPC2b) (AID 2284300)
Activity calls are given as the source filed them. The calls were made as follows: active = hit-call score of the fitted dose curve at least 0.9, where 1 is the maximum; inactive = score below 0.9.
Respond using exactly one of the listed classes: active, inactive

{"SMILES_TEXT": "O=S(=O)(O)C(F)(F)C(F)(F)C(F)(F)C(F)(F)F", "CLASS_LABEL": "inactive"}
{"SMILES_TEXT": "CCOP(=S)(OCC)SCSC(C)(C)C", "CLASS_LABEL": "inactive"}

State the result this test recorded for O=S(=O)(O)C(F)(F)C(F)(F)C(F)(F)C(F)(F)C(F)(F)C(F)(F)F . inactive

State the result this test recorded for C=CC(N)=O . inactive

State the result this test recorded for CO/C=C(/C(=O)OC)c1ccccc1COc1cccc(C(F)(F)F)n1 . active

* * *

- Read-out: Cytochrome P450 4A22 (Homo sapiens)
- ASSAY_METHOD_TEXT: LTEA_HepaRG_CYP4A22: Life Technologies and Expression Analysis (LTEA) Assay for Cytochrome P450 4A22 (CYP4A22) using HepaRG (AID 2283495)
- SETUP_CONDITIONS: mRNA level, 48 h; actives raise or lower the signal
Active and inactive are the calls of the source. How the source made its calls: active means hit-call score of the fitted dose curve at least 0.9, where 1 is the maximum; inactive means score below 0.9.
MEASURE: AC50

Consider the reported AC50 for these compounds:
{"SMILES_TEXT": "CC1=C2C[C@H]3[C@@H](CC=C4C[C@@H](O)CC[C@@]43C)[C@@H]2CC[C@]12O[C@@H]1C[C@H](C)CN[C@H]1[C@H]2C", "AC50": "inactive"}
{"SMILES_TEXT": "Cc1ccc(O)c(C)c1", "AC50": "inactive"}
{"SMILES_TEXT": "Cc1cc2c3c(c1)C(c1ccccc1)=N[C@@H](NC(=O)c1ccncc1)C(=O)N3CC2", "AC50": "36 µM (active)"}
{"SMILES_TEXT": "Clc1ccc(Cl)cc1", "AC50": "inactive"}
{"SMILES_TEXT": "O=C(O)C(F)(F)C(F)(F)C(F)(F)C(F)(F)C(F)(F)C(F)(F)C(F)(F)C(F)(F)F", "AC50": "90 µM (active)"}
{"SMILES_TEXT": "Oc1ccc(Cl)cc1Cl", "AC50": "inactive"}
{"SMILES_TEXT": "C[C@]12CCC(=O)C=C1CC[C@@H]1[C@@H]2CC[C@@]2(C)[C@H]1CC[C@]2(C)O", "AC50": "69.8 µM (active)"}
{"SMILES_TEXT": "CC(C)(O)C(=O)Nc1ccc([N+](=O)[O-])c(C(F)(F)F)c1", "AC50": "inactive"}
{"SMILES_TEXT": "C[C@]12CCC(=O)C=C1CC[C@@H]1[C@@H]2CC[C@]2(C)C(=O)CC[C@@H]12", "AC50": "72.7 µM (active)"}
{"SMILES_TEXT": "CCNc1nc(NC(C)C)nc(SC)n1", "AC50": "inactive"}

# next compound below
Just so you know, measured AC50 for CN(C)CCO came out at inactive

* * *

- Read-out: Potassium channel subfamily K member 1 (KCNK1), KCNK1 (gene 3775)
- ASSAY_METHOD_TEXT: LTEA_HepaRG_KCNK1: Life Technologies and Expression Analysis (LTEA) Assay for Potassium channel subfamily K member 1 (KCNK1) using HepaRG (AID 2283511)
- SETUP_CONDITIONS: mRNA level, 48 h; actives raise or lower the signal
The source made the active and inactive calls. Rule for the calls: active = hit-call score of the fitted dose curve at least 0.9, where 1 is the maximum; inactive = score below 0.9.
Respond using exactly one of the listed classes: active, inactive

State the result this test recorded for Cc1cccc(C)c1N . inactive

State the result this test recorded for Oc1c(Cl)c(Cl)c(Cl)c(Cl)c1Cl . active

State the result this test recorded for CCOP(=S)(OCC)SCSC(C)(C)C . inactive

State the result this test recorded for CCC(C)(c1ccc(O)cc1)c1ccc(O)cc1 . inactive

State the result this test recorded for Cc1cccc([N+](=O)[O-])c1 . inactive

State the result this test recorded for O=S(=O)(O)C(F)(F)C(F)(F)C(F)(F)C(F)(F)F . inactive

State the result this test recorded for C=CC(N)=O . inactive

* * *

- TEST_SYSTEM: Retinoic acid receptor RXR-alpha (Homo sapiens)
- ASSAY_METHOD_TEXT: OT_NURR1_NURR1RXRa_0480: Odyssey Thera (OT) 8-hour HEK293T Protein Complementation Assay for Nurr1/retinoid X receptor (RXR) (AID 2283385)
Inconclusive results are not listed. Calls of active or inactive are those of the source. How the source made its calls: active means hit-call score of the fitted dose curve at least 0.9, where 1 is the maximum; inconclusive means response in the unintended direction; inactive means score below 0.9.
Respond using exactly one of the listed classes: yes (1) for active, no (0) for inactive

Field: example entries. Status: answers known.
{"SMILES_TEXT": "Cc1ccccc1[N+](=O)[O-]", "CLASS_LABEL": "no (0)"}
{"SMILES_TEXT": "Clc1ccc(Cl)cc1", "CLASS_LABEL": "no (0)"}
{"SMILES_TEXT": "O=C(O)C(F)(F)C(F)(F)C(F)(F)C(F)(F)C(F)(F)F", "CLASS_LABEL": "no (0)"}

API: the following record is the query input.
State the result this test recorded for COc1ccc(O)c(C(C)(C)C)c1 . no (0)

* * *

- ASSAY_METHOD_TEXT: ATG_AP_2_CIS: Attagene CIS-FACTORIAL HepG2 Assay for human Activator Protein 2 (AP-2) (AID 2282932)
- SETUP_CONDITIONS: HepG2 AP-2 cis-reporter, Attagene transcription factor profiling; actives raise or lower the signal
Active and inactive are the calls of the source. The calls were made as follows: active = hit-call score of the fitted dose curve at least 0.9, where 1 is the maximum; inactive = score below 0.9.
Respond using exactly one of the listed classes: True (active), False (inactive)

Field: example entries. Status: answers known.
{"MOLECULE": "CCNc1nc(NC(C)C)nc(SC)n1", "CLASS_LABEL": "False"}
{"MOLECULE": "Clc1ccc(Cl)cc1", "CLASS_LABEL": "False"}
{"MOLECULE": "NS(=O)(=O)C(F)(F)C(F)(F)C(F)(F)C(F)(F)C(F)(F)C(F)(F)C(F)(F)C(F)(F)F", "CLASS_LABEL": "False"}
{"MOLECULE": "CCCN(CCC)N=O", "CLASS_LABEL": "False"}

State the result this test recorded for CCC(C)(CC)c1cc(NC(=O)c2c(OC)cccc2OC)on1 . False

State the result this test recorded for CCCCCCOC(=O)c1ccccc1C(=O)OCCCCCC . False

State the result this test recorded for Sc1ccccc1 . False

State the result this test recorded for Cc1ccccc1[N+](=O)[O-] . False

State the result this test recorded for CCC(C)c1cc([N+](=O)[O-])cc([N+](=O)[O-])c1O (stereo unspecified) . False

State the result this test recorded for Cc1cccc(C)c1N . False

State the result this test recorded for Cc1ccccc1O . False

* * *

- Read-out: Thyroid Hormone Responsive (THRSP), THRSP (gene 7069)
- ASSAY_METHOD_TEXT: LTEA_HepaRG_THRSP: Life Technologies and Expression Analysis (LTEA) Assay for Thyroid Hormone Responsive (THRSP) using HepaRG (AID 2283536)
- SETUP_CONDITIONS: mRNA level, 48 h; actives raise or lower the signal
Active and inactive are the calls of the source. How the source made its calls: active means hit-call score of the fitted dose curve at least 0.9, where 1 is the maximum; inactive means score below 0.9.
Respond using exactly one of the listed classes: active, inactive

Field: example entries. Status: answers known.
{"COMPOUND": "Cc1cc2c3c(c1)C(c1ccccc1)=N[C@@H](NC(=O)c1ccncc1)C(=O)N3CC2", "CLASS_LABEL": "active"}
{"COMPOUND": "C1CC2OC2CC1C1CO1 (configuration not stated)", "CLASS_LABEL": "inactive"}
{"COMPOUND": "CC(C)(c1ccccc1)c1ccc(O)cc1", "CLASS_LABEL": "active"}
{"COMPOUND": "Cc1ccccc1CO[C@@H]1C[C@@]2(C(C)C)CC[C@]1(C)O2", "CLASS_LABEL": "active"}
{"COMPOUND": "CCOCCOC(C)=O", "CLASS_LABEL": "inactive"}
{"COMPOUND": "Clc1ccc(C(Cl)(Cl)Cl)cc1", "CLASS_LABEL": "inactive"}

State the result this test recorded for Cc1ccccc1[N+](=O)[O-] . inactive

Ref: PubChem BioAssay (EPA / NIEHS)
